Sourced from patent US20220135591A1

Target: MAGL (recombinant wild-type) (Homo sapiens, UniProt Q99685)
Sequence (Q99685 1-303): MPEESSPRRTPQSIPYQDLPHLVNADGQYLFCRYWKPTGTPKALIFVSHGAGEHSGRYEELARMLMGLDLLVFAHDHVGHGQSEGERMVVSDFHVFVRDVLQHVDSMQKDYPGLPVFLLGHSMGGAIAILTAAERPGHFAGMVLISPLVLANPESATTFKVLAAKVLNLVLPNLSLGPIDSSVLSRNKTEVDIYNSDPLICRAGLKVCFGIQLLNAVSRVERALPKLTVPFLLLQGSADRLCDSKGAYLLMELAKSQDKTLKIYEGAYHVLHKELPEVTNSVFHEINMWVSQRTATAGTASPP
Test: 4-NPA assay: MAGL inhibitory activity by hydrolysis of 4-nitrophenylacetate, absorbance at 405 nm
Settings: 4-NPA assay (values without footnote [b])
pIC50: −log10 of the molar value.
If the reported pIC50 equals or exceeds 7, assign 1. If not, assign 0.

Prompt line: pIC50 >= 7 for Cc1ccc2oc(N3CCN(C(=O)c4cc(Cl)cc(N5CC6(CC(O)C6)C5)c4)CC3)nc2n1 ?
Response line: 0

Prompt line: pIC50 >= 7 for C=C(C)Cc1nc(-c2ccc(C(=O)N3CCN(c4nc5nc(Cl)ccc5o4)CC3)cc2)no1 ?
Response line: 1

Prompt line: pIC50 >= 7 for CC1(COc2ccc(C(=O)N3CCN(c4nc5nc(Cl)ccc5o4)CC3)cc2Cl)CC1 ?
Response line: 1

Prompt line: pIC50 >= 7 for Cc1ccc2oc(N3CCN(C(=O)c4ccc(-c5noc(C(C)(C)CO)n5)cc4)CC3)nc2n1 ?
Response line: 0

Prompt line: pIC50 >= 7 for CCC(CC)c1nc2ccc(C(=O)N3CCN(c4nc5nc(C)ccc5o4)CC3)cc2o1 ?
Response line: 0
